Just for reference, patent US20230272011A1 is where these values come from.

Target: T1, human serum albumin (human, UniProt P02768 25-609)
T1 construct: mature; Bought protein; biotinylated in the Octet and HTRF assays; also called HSA; HuSA
Experiment: SPR (Biacore T200), albumin amine-coupled to CM5, Affimer analyte, pH 7.4
Property measured: kon (M⁻¹ s⁻¹)
The answer is to be given in M⁻¹ s⁻¹; state only the numeric part.

Name the recorded kon for HSA-41 (designed binder, also called HSA-41 parent; HSA-41 AH parent) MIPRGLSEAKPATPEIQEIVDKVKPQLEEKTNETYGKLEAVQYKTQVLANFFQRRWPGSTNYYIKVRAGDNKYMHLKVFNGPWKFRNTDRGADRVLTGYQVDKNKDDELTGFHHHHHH .
1.43e+06

Name the reported kon value associated with the binder HSA-18 (designed binder, also called HSA-18 monomer) MIPRGLSEAKPATPEIQEIVDKVKPQLEEKTNETYGKLEAVQYKTQVLADWWQAKWPHSTNYYIKVRAGDNKYMHLKVFNGPYKVHQSSGGADRVLTGYQVDKNKDDELTGFHHHHHH
54100

Recorded kon for HSA-36 (designed binder) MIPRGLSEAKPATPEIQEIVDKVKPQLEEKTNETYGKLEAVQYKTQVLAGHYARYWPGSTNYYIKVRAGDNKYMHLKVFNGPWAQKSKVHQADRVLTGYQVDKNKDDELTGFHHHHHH , please?
22500

// query kon value for entry HSA-20 (designed binder) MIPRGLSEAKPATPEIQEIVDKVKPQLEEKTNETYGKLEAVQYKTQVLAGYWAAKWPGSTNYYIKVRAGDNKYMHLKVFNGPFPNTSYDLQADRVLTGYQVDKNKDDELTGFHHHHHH
52200
